- EXPERIMENTAL_DETAILS: soluble on expression in E. coli; label from the status in PepcDB or PDB records
MEASURED_PARAMETER: soluble on expression in E. coli

SERRLGVRAWVKENRGSFQPPVCNKLMHQEQLKVMFIGGPNTRKDYHIEEGEEVFYQLEGDMVLRVLEQGKHRDVVIRQGEIFLLPARVPHSPQRFANTVGLVVERRRLETELDGLRYYVGDTMDVLFEKWFYCKDLGTQLAPIIQEFFSSEQYRTGKPIPDQLLKEPPFPLSTRSIMEPMSLDAWLDSHHRELQAGTPLSLFGDTYETQVIAYGQGSSEGLRQNVDVWLWQLEGSSVVTMGGRRLSLAPDDSLLVLAGTSYAWERTQGSVALSVTQDPACKKPLG : soluble
MSLRIKDIARLANVSVGTVDRVLHGRSGVSEASRKRVEEILKQLDYQPNMYASALASNKKYTFACLLPKHLEGEYWTDVQKGIREAVTTYSDFNISANITHYDPYDYNSFVATSQAVIEEQPDGVMFAPTVPQYTKGFTDALNELGIPYIYIDSQIKDAPPLAFFGQNSHQSGYFAARMLMLLAVNDREIVIFRKIHEGVIGSNQQESREIGFRQYMQEHHPACNILELNLHADLNIEDSRMLDDFFREHPDVKHGITFNSKVYIIGEYLQQRRKSDFSLIGYDLLERNVTCLKEGTVSFLIAQQPELQGFNSIKTLCDHLIFRKEVACTNYMPIDLLTKENIDYYHSEGHHHHHH : soluble
